- Tested Target: E3 ubiquitin-protein ligase XIAP (Homo sapiens)
- Assay Remarks: small molecules binding XIAP protein – biophysical, small-molecule microarray, fluorescence 635 nm, primary screen (AID 1181);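 further: score merges 667 nm emission and signal to noise over triplicate slides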
- Measurement Setup: higher = more signal
Classification field: 1 = composite z-score at or over -0.1; 0 = composite z-score under -0.1.

>>> class_label("[N-]=[N+]=Nc1ccccc1C[C@@]1(C(=O)N2CCCCC2)N=C(c2ccc(OCCCO)cc2)O[C@@H]1c1ccccc1")
0
>>> class_label("O=C1C[C@@](C(=O)NCc2ccccc2)(c2ccc([N+](=O)[O-])cc2)[C@@H](c2ccc(CO)cc2)N1CC12CC3CC(CC(C3)C1)C2")
1
>>> class_label("CC(C)[Si](C#C[Si](C(C)C)(C(C)C)C(C)C)(O[C@H](C)c1cn(Cc2ccccc2)nn1)C(C)C")
1
>>> class_label("COC(=O)c1c2oc(c1C(=O)OC)C(=O)NC1(CCCCC1)c1cn(nn1)C[C@H](Cc1ccccc1)NC(=O)N[C@H](CO)CC2")
0
>>> class_label("COC(=O)C[C@H]1O[C@@H](CCc2ccccc2)[C@@H](C)[C@@H]1[Si](C)(C)c1ccc(OC)cc1")
1
>>> class_label("O=C(NCCN1CCOCC1)[C@@H]1c2ccccc2C(=O)N(Cc2cc(C(F)(F)F)cc(C(F)(F)F)c2)[C@H]1c1ccc(CO)cc1")
0
>>> class_label("COc1ccc([Si](C)(C)[C@H]2[C@H](CCn3cc([C@H](O)c4ccccc4)nn3)O[C@@]3(C(=O)N(C)c4ccccc43)[C@@H]2C)cc1")
1

---

- Tested Target: Torsin-1A (Homo sapiens) (UniProt O14656)
- Sequence (O14656 whole entry, looked up): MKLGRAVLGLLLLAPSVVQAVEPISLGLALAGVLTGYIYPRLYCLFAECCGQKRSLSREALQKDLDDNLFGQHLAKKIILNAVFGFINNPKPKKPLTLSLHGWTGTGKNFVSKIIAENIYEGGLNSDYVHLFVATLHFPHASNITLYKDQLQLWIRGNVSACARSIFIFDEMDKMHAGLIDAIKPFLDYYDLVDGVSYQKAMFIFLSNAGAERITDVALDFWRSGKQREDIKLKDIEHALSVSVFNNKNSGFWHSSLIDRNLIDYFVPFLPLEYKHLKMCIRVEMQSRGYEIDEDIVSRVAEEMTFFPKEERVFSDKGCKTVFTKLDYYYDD
- Assay Remarks: torsin A mutant lysate binding on microarrays – cell lysate, small-molecule microarray, COS7 lysate, 635/667 nm fluorescence, primary screen (AID 1150);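 further: score pools 667 nm emission and signal to noise measuring lysate protein binding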
- Measurement Setup: COS7 hTOR1A mutant lysate, 635 nm fluorescence, higher = more signal
Measured Property: composite z-score

>>> numeric_value("COCCCNC(=O)[C@@H]1c2ccccc2C(=O)N(Cc2ccccc2)[C@H]1c1ccc(CO)cc1")
1.29
>>> numeric_value("O=C(CS)NCCCCCNC(=O)[C@@H]1C[C@@H]2C(=O)NCC(=O)N2[C@@H]1c1ccc(O)cc1")
0.0395
>>> numeric_value("C=CCC(OC(C)=O)[C@@H]1[C@@H](N(Cc2ccc(-c3ccccc3)cc2)C(=O)Cc2ccc(F)cc2)c2cc(OCCCO)ccc2N1C(=O)c1ccc2ccccc2c1 (stereo partly drawn)")
-0.0056
>>> numeric_value("Cc1ccc(S[C@]2(C(=O)O)CC(=O)N(Cc3ccccc3C(F)(F)F)[C@@H]2c2ccc(CO)cc2I)cc1")
1.98
>>> numeric_value("O=C1C2C=CC(C(O)c3cc(C(F)(F)F)cc(C(F)(F)F)c3)N(Nc3ccccc3)C2C(=O)N1c1ccccc1 (stereo not drawn)")
1.18
>>> numeric_value("O=C1NC(=O)C2C1C=CC(C(O)c1ccc(I)cc1)N2Nc1ccccn1 (stereo not drawn)")
0.239
>>> numeric_value("C=CCNC(=O)[C@H]1[C@@H]2C(=O)O[C@@H](c3ccccc3)[C@@H](c3ccccc3)N2[C@@H](c2ccc(O)cc2)[C@]12C(=O)Nc1ccc(C#CCCO)cc12")
-0.187
>>> numeric_value("[N-]=[N+]=NCc1ccccc1C[C@@]1(C(=O)NCC(O)CO)N=C(c2ccc(OCCCO)cc2)O[C@@H]1c1ccccc1 (stereo partly drawn)")
1.14
